protocol-notes: p53 small molecule agonists, cell-based qHTS assay: qHTS cell viability counter screen (AID 1963581); note: nearly all actives have a fitted effect of over 45% in size
experimental-setup: p53RE-bla HCT-116 viability, ATP luminescence, 16 h; series mostly up to 66 µM
Inconclusive results are not listed. Active and inactive are the calls of the source. Calls come from the whole dose curve.
Respond with a class label; see active, inactive

Query block: Short answer needed: outcome of this test for `COC(=O)c1ccccc1C(=O)OC` ?
Result block: inactive

Query block: Short answer needed: outcome of this test for `c1ccc(Nc2ccc3ccccc3c2)cc1` ?
Result block: inactive

Query block: Short answer needed: outcome of this test for `c1ccc2c(c1)CCCC2` ?
Result block: inactive

Query block: Short answer needed: outcome of this test for `CN(C)c1ccc(N=O)cc1` ?
Result block: inactive

Query block: Short answer needed: outcome of this test for `Sc1ccccc1Cl` ?
Result block: inactive

Query block: Short answer needed: outcome of this test for `CCCCCCCCCCCC#N` ?
Result block: inactive

Query block: Short answer needed: outcome of this test for `CCOC(=O)c1ccccc1C(=O)OCC` ?
Result block: inactive

Query block: Short answer needed: outcome of this test for `C[C@]12CCC(=O)C=C1CC[C@@H]1[C@@H]2CC[C@]2(C)C(=O)CC[C@@H]12` ?
Result block: inactive

Query block: Short answer needed: outcome of this test for `CCCCOC(=O)c1ccccc1C(=O)OCc1ccccc1` ?
Result block: inactive

Query block: Short answer needed: outcome of this test for `c1ccc2sc(SNC3CCCCC3)nc2c1` ?
Result block: inactive

Query block: Short answer needed: outcome of this test for `O=C(O)CC[N+](=O)[O-]` ?
Result block: inactive

Query block: Short answer needed: outcome of this test for `CCCCCCCCCCCCCCCCn1cc[n+](C)c1` ?
Result block: active

Query block: Short answer needed: outcome of this test for `Cc1ccccc1O` ?
Result block: inactive

Query block: Short answer needed: outcome of this test for `Nc1ncc([N+](=O)[O-])s1` ?
Result block: inactive

Query block: Short answer needed: outcome of this test for CCC(=O)O[C@@H]1C=C2CCC3C(CCC4(C)C3CC[C@@H]4OC(=O)CC)C2CC1 (stereo partly drawn) ?
Result block: inactive

Query block: Short answer needed: outcome of this test for `O=[N+]([O-])c1ccc([As](=O)(O)O)cc1` ?
Result block: inactive

Query block: Short answer needed: outcome of this test for `COc1nc(C)nc(NC(=O)NS(=O)(=O)c2ccccc2Cl)n1` ?
Result block: inactive

Query block: Short answer needed: outcome of this test for `CCCCCCCCCCCCOS(=O)(=O)O` ?
Result block: inactive

Query block: Short answer needed: outcome of this test for `CCCCCCCCCc1ccc(O)cc1` ?
Result block: inactive

Query block: Short answer needed: outcome of this test for `CN(C)N` ?
Result block: inactive

Query block: Short answer needed: outcome of this test for `O=C(CCN1CC1)OCC(CO)(COC(=O)CCN1CC1)COC(=O)CCN1CC1` ?
Result block: inactive

Query block: Short answer needed: outcome of this test for `c1cc2c3c(cccc3c1)CC2` ?
Result block: inactive

Query block: Short answer needed: outcome of this test for `O=S(=O)(c1ccc(Cl)cc1)c1cc(Cl)c(Cl)cc1Cl` ?
Result block: inactive

Query block: Short answer needed: outcome of this test for `[Cd+2].[Cl-].[Cl-]` ?
Result block: active

Query block: Short answer needed: outcome of this test for `Nc1ccncc1` ?
Result block: inactive

Query block: Short answer needed: outcome of this test for `CC[N+](CC)(CC)CC` ?
Result block: inactive

Query block: Short answer needed: outcome of this test for `C=C(C)[C@@H]1CC=C(C=O)CC1` ?
Result block: inactive

Query block: Short answer needed: outcome of this test for `CSc1nnc(C(C)(C)C)c(=O)n1N` ?
Result block: inactive

Query block: Short answer needed: outcome of this test for `CC(C)c1ccc(O)cc1` ?
Result block: inactive

Query block: Short answer needed: outcome of this test for `COc1cc2c(cc1OC)[C@@]13CCN4CC5=CCO[C@H]6CC(=O)N2[C@H]1[C@H]6[C@H]5C[C@H]43` ?
Result block: inactive

Query block: Short answer needed: outcome of this test for `N#CCCCCC#N` ?
Result block: inactive

Query block: Short answer needed: outcome of this test for `CCCN(CCOc1c(Cl)cc(Cl)cc1Cl)C(=O)n1ccnc1` ?
Result block: inactive

Query block: Short answer needed: outcome of this test for CCCCC(CC)CO[N+](=O)[O-] (stereo not drawn) ?
Result block: inactive

----------
protocol-notes: Nuclear factor erythroid 2-related factor 2/antioxidant responsive element (Nrf2/ARE) small molecule agonists: luciferase reporter gene qHTS assay in human keratinocytes (AID 1919969); note: nearly all actives have a fitted effect of over 35% in size
experimental-setup: KeratinoSens HaCaT ARE-luciferase, luminescence, 24 h; series mostly up to 92.4 µM
Excerpt: National Center for Advancing Translational Sciences [NCATS] Division of Preclinical Innovation [DPI] U.S. Environmental Protection Agency [EPA] National Institutes of Environmental Health Sciences [NIEHS] National Toxicology Program [NTP] […] Oxidative stress has been implicated in the pathogenesis of a variety of diseases ranging from cancer to neurodegeneration. […] The activation of the report gene under culture conditions can be detected by ONE-Glo Luciferase Assay System (Promega, Madison, WI). […]
Results filed as inconclusive are left out. Active and inactive are the calls of the source. Calls come from the whole dose curve.
Respond with a class label; see active, inactive

Query block: Short answer needed: outcome of this test for `CN(N=O)C(N)=O` ?
Result block: inactive

Query block: Short answer needed: outcome of this test for `C#CCO` ?
Result block: inactive

Query block: Short answer needed: outcome of this test for CC(C)C(C)(N)C#N (stereo not given) ?
Result block: inactive

Query block: Short answer needed: outcome of this test for `CC(C)c1ccc(NC(=O)N(C)C)cc1` ?
Result block: inactive

Query block: Short answer needed: outcome of this test for CCc1cccc(C)c1N(C(=O)CCl)C(C)COC (stereo not given) ?
Result block: active

Query block: Short answer needed: outcome of this test for `O=[N+]([O-])c1cc(Cl)c(Cl)c(Cl)c1` ?
Result block: inactive

Query block: Short answer needed: outcome of this test for `Cc1ccccc1N` ?
Result block: inactive

Query block: Short answer needed: outcome of this test for `CCCSC(=O)Cl` ?
Result block: inactive

Query block: Short answer needed: outcome of this test for `CC(C)c1cccc(C(C)C)c1O` ?
Result block: inactive

Query block: Short answer needed: outcome of this test for `N#CC1(N=NC2(C#N)CCCCC2)CCCCC1` ?
Result block: inactive

Query block: Short answer needed: outcome of this test for `NC(=O)CCl` ?
Result block: active

Query block: Short answer needed: outcome of this test for `BrC(Br)Br` ?
Result block: inactive

Query block: Short answer needed: outcome of this test for `CN(C)C(=O)Cl` ?
Result block: inactive

Query block: Short answer needed: outcome of this test for `CCOP(=O)(OCC)Oc1ccc([N+](=O)[O-])cc1` ?
Result block: inactive

Query block: Short answer needed: outcome of this test for O=C(NC(=O)c1c(F)cccc1F)Nc1cc(Cl)c(OC(F)(F)C(F)C(F)(F)F)cc1Cl (stereo not given) ?
Result block: inactive

Query block: Short answer needed: outcome of this test for `O=C1CC(=O)NC(=O)N1` ?
Result block: inactive

Query block: Short answer needed: outcome of this test for CC1CN1 (stereo not given) ?
Result block: inactive

Query block: Short answer needed: outcome of this test for `CC(C)(C)OOC(C)(C)CCC(C)(C)OOC(C)(C)C` ?
Result block: inactive

Query block: Short answer needed: outcome of this test for `CS(=O)(=O)Cl` ?
Result block: inactive

Query block: Short answer needed: outcome of this test for `O=[N+]([O-])c1cccc(O)c1` ?
Result block: inactive

Query block: Short answer needed: outcome of this test for `NNC(=O)c1ccccc1` ?
Result block: active

Query block: Short answer needed: outcome of this test for `Cc1cccc(N)c1C` ?
Result block: inactive

Query block: Short answer needed: outcome of this test for `CC[n+]1ccccc1` ?
Result block: inactive

Query block: Short answer needed: outcome of this test for `Oc1c(Br)cc(Br)cc1Br` ?
Result block: inactive

Query block: Short answer needed: outcome of this test for `Cc1cccc(C)c1NC(=O)CN1CCCC1=O` ?
Result block: inactive
